Target Of Assay: UniProtKB P03956
Sequence (P03956 whole entry): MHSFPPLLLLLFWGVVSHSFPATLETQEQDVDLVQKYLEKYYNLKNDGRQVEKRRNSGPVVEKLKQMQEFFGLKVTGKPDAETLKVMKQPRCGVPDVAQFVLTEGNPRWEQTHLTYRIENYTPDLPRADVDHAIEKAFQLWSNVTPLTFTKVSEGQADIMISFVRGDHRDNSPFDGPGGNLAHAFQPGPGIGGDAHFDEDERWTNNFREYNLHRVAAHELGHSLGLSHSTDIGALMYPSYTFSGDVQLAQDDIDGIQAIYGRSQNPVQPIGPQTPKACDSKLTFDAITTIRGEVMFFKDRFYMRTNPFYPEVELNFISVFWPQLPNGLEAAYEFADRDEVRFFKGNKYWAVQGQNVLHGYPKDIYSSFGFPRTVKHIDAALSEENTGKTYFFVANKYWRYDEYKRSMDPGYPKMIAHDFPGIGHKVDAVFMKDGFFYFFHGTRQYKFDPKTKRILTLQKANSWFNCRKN
Value Type: IC50 (µM)

> print(dat)
                              line.notation  numeric.readout
1  CCCCCCCCC[C@H](CC(=O)NO)C(=O)N[C@@H](Cc1ccccc1)C(=O)NC              0.5
2  CCCCCC[C@H](CC(=O)NO)C(=O)N[C@@H](Cc1ccccc1)C(=O)NC             0.02

A. CCCCCCC[C@H](CC(=O)NO)C(=O)N[C@@H](Cc1ccccc1)C(=O)NC
B. CNC(=O)[C@H](Cc1ccccc1)NC(=O)[C@H](CCCc1ccccc1)CC(=O)NO
Query: From the items above, decide which of A and B has the lower IC50 reading. Which one? Tell me its label.
Result: A
(A: 0.4 µM, B: 1 µM)

P. CCCCCC[C@H](CC(=O)O)C(=O)N[C@@H](Cc1ccccc1)C(=O)NC
Q. CCCCCCC[C@H](CC(=O)O)C(=O)N[C@@H](Cc1ccccc1)C(=O)NC
R. CCCCCCCC[C@H](CC(=O)NO)C(=O)N[C@@H](Cc1ccccc1)C(=O)NC
Query: Order the 3 compounds from highest to lowest IC50. To answer, write out the labels according to the requested order.
Result: P, Q, R
(P: 20 µM, Q: 7 µM, R: 0.15 µM)

a. CCCCCCCCC[C@H](CC(=O)O)C(=O)N[C@@H](Cc1ccccc1)C(=O)NC
b. CCCCCCCCCCCC[C@H](CC(=O)NO)C(=O)N[C@@H](Cc1ccccc1)C(=O)NC
Query: Between the entries labelled a and b , which has a larger IC50 value on record? Indicate your choice by writing its label.
Result: b
(b: 50 µM, a: 7 µM)
